Value source: PubChem BioAssay (NCATS)

- Tested on: Es-2
- Method Notes: Primary qHTS to identify gynecologic anti-cancer compounds using libraries of approved drugs and bioactive compounds (AID 1345084); note: nearly all actives have a fitted effect of over 55% in size
- Condition Summary: Gynecologic cancer cell panel viability, ATPlite luminescence, 48 h; series mostly up to 57.5 µM
Results filed as inconclusive are left out. Activity calls are given as the source filed them. Calls come from the whole dose curve; as a rule, active = well fitted cell-killing curve with a large enough effect; inconclusive = small, poorly fitted or top-dose-only effect, or effect the other way; inactive = flat fitted curve, though single readings scatter.
Select the matching outcome among TRUE = active, FALSE = inactive

Recorded results for 4 molecules are shown here.
| Molecule | Experimental System | Label Value |
| --- | --- | --- |
| O=C(O)c1[nH]n(-c2ccc(S(=O)(=O)O)cc2)c(=O)c1N=Nc1ccc(S(=O)(=O)O)cc1 | Es-2 | FALSE |
| CC(=O)O[C@@H]1C(=O)O[C@@H]2[C@H]1OC(=O)[C@@H]2OC(C)=O | Es-2 | FALSE |
| COC(=O)/C=C\C(=O)OC | Es-2 | FALSE |
| Cc1ccc(C(=O)C(=O)O)cc1C | Es-2 | FALSE |

Would you mind telling me which call this test gave CCN1CCCC1CN (configuration not stated) ?
FALSE

---

- Method Notes: Primary qHTS for small molecule stabilizers of the endoplasmic reticulum resident proteome: Secreted ER Calcium Modulated Protein (SERCaMP) assay (AID 1508630)
- Condition Summary: SH-SY5Y GLuc-SERCaMP (Gaussia luciferase released on ER calcium loss) secretion, thapsigargin, luminescence; series mostly up to 38.4 µM
Results filed as inconclusive are left out. The source made the active and inactive calls. Calls follow the shape of the dose curve; as a rule, active = well fitted inhibition curve with a large enough effect; inconclusive = small, poorly fitted or top-dose-only effect; inactive = no such curve, though single readings can be large or run the other way.
Your reply should match one of these outcome classes. 1 (active), 0 (inactive)

Use these answered entries as a reference point.
| Molecule | Label Value |
| --- | --- |
| CC(C)Cc1ccc(C(C)C(=O)OCc2ccccn2)cc1 (stereo not given) | 0 |
| O=[N+]([O-])c1ccc(O)c2ncccc12 | 1 |
| Cc1nc([N+](=O)[O-])cn1-c1ccc([N+](=O)[O-])cc1 | 0 |

What did the test return for `O=C1Nc2cc(Cl)ccc2Oc2ccccc21` ?
0

Recorded test call requested for `COC(=O)/C=C(/C)N`
0

Recorded call for `O=c1[nH]sc2cc(Cl)ccc12` ?
0

Could you please tell me the result logged for `CCOC(=O)O[C@]1(C(=O)OCCl)CC[C@H]2[C@@H]3CCC4=CC(=O)C=C[C@]4(C)[C@H]3[C@@H](O)C[C@@]21C` in this assay?
0

How was `CCCCCCCCCCCCCCCCCCN(C)C` classified in this test?
0

What did the test return for `O=C(CCCl)NCCc1ccccc1` ?
0

Given `Nc1c2ccccc2nc2ccccc12` , state the outcome it received in this test.
0

# fetch the recorded call for `CCCCCC[C@@H](CCC)C(=O)O` here
0

I'd appreciate the recorded outcome for `CCCC(=O)O[C@]1(C(=O)COC(=O)CC)CC[C@H]2[C@@H]3CCC4=CC(=O)CC[C@]4(C)[C@H]3[C@@H](O)C[C@@]21C` from this test.
0

Which outcome was assigned to `CCS(=O)(=O)c1ccc(OC)c(C(=O)OC)c1` in this test?
0

---

- Experimental System: Cytochrome P450 2D6 (Homo sapiens)
- Method Notes: Cytochrome P450 family 2 subfamily D member 6 (CYP2D6) small molecule antagonists: luciferase biochemical (cell-free) qHTS assay (AID 1645840); note: nearly all actives have a fitted effect of over 55% in size
- Condition Summary: P450-Glo CYP2D6 enzyme, luciferin luminescence, 1 h; series mostly up to 57.4 µM
Results filed as inconclusive are left out. Calls of active or inactive are those of the source. Calls come from the whole dose curve; as a rule, active = well fitted inhibition curve with a large enough effect in the repeat runs; inconclusive = weak or mixed curves; inactive = flat fitted curve, though single readings scatter.
// classify into active, inactive

Use these answered entries as a reference point.
| Compound | Label Value |
| --- | --- |
| CN(CC1(C)CCCO1)S(=O)(=O)c1ccc(Cl)c(S(N)(=O)=O)c1 (centres undefined) | inactive |
| COc1ccccc1OCC1CNC(=O)O1 (centres undefined) | inactive |
| CC(COc1ccccc1)NN (centres undefined) | active |

Name the outcome recorded for COc1cc(C(=O)NC2CCCNC2)cc(OC)c1OC (centres undefined) in the assay.
inactive

Short answer needed: outcome of this test for `CCCCCCCCCCCCCC[N+](C)(C)C` ?
active

Give the logged outcome of this assay for the following compound: `O=C(CCCCCCCCC#CI)Oc1ccccc1`
active

Assay result, entry `Nc1nnnn1-c1ccccc1` — outcome?
inactive

Status in this test for `O=C(Oc1ccccc1)c1ccccc1O` ?
inactive

Given `Cc1cc(C(C)(C)C)c(O)c(C(C)(C)C)c1` , state the outcome it received in this test.
inactive

Any idea what this test logged for CC(C)C(=O)Nc1cccc(C2CN3CCSC3=N2)c1 (centres undefined) ?
inactive

Kindly provide the recorded test outcome for the following compound: `CCCCCCn1c(=O)c2c(ncn2C)n(C)c1=O`
inactive

# fetch the recorded call for `Nc1c2ccccc2nc2ccccc12` here
active

Which outcome was entered for the compound `N#C/C(=C1/SC[C@@H](c2ccc(Cl)cc2Cl)S1)n1ccnc1` in this test?
active

Write down the call the test reported for this compound. Item: `COc1cc(OC)nc(O[C@H](C(=O)O)C(OC)(c2ccccc2)c2ccccc2)n1`
inactive

Check the results log: what was the call for CC(=O)O[C@@H]1CC2C3CCc4cc(OC(=O)c5ccccc5)ccc4C3CCC2(C)[C@H]1OC(C)=O (some centres undefined) ?
inactive

How was NC(=O)COCCN1CCN(C(c2ccccc2)c2ccc(Cl)cc2)CC1 (centres undefined) classified in this test?
inactive

Field: outcome | Entry: `CC(C)=CCNc1ncnc2c1ncn2[C@@H]1O[C@H](CO)[C@@H](O)[C@H]1O`
inactive

Which result was noted for this compound in the test: `O=C1OC2(c3ccccc31)c1cc(I)c(O)c(I)c1Oc1c2cc(I)c(O)c1I`
active

Query: recorded result category for `Cc1c(N)cccc1C(F)(F)F` in this test
inactive

Hi, do you know how `CCc1cc(S(=O)(=O)O)c2cc(C(C)C)cccc1-2` came out in this test?
inactive

Which outcome was assigned to `CCCCCC(=O)O[C@]1(C(C)=O)CC[C@H]2[C@@H]3CCC4=CC(=O)CC[C@]4(C)[C@H]3CC[C@@]21C` in this test?
active

How did this test come out for `OCc1c[nH]c2ccccc12` ?
active

Given CC(=O)N(CC(O)CO)c1c(I)c(C(=O)NCCO)c(I)c(C(=O)NCC(O)CO)c1I (centres undefined) , state the outcome it received in this test.
inactive

Per the records of this test, what outcome belongs to `CC(=O)N(CC(=O)N(C)C)c1ccccc1` ?
inactive

Please let me know the test result on file for CCOC(=O)NNc1ccc(N(CC)CC(C)O)nn1 (centres undefined) .
inactive

Given CN1C(CSCC(F)(F)F)Nc2cc(Cl)c(S(N)(=O)=O)cc2S1(=O)=O (centres undefined) , state the outcome it received in this test.
inactive

Look up the recorded call for `CCCCCCCCCCCCCCCC[N+](C)(C)Cc1ccccc1` in this test.
active

What outcome does the record of this test show for `CCCC(=O)Nc1ccc(O)c(C(C)=O)c1` ?
inactive

What was the test verdict on `CNC[C@H](O)[C@@H](O)[C@H](O)[C@H](O)CO` ?
inactive
